assay: activity coefficient (dimensionless); of the first substance listed, at infinite dilution; xn = mol fraction of the nth substance listed; conditions: 328.15 K; Liquid; Chromatography; x1 = 0
Please provide measured activity coefficient for the entries that follow.
Give bare numbers.

In the examples that follow, each entry is paired with its recorded activity coefficient.
[
  {
    "molecule": "CCC(=O)CC [pentan-3-one] + CCCCCCn1cc[n+](C)c1.N#C[B-](C#N)(C#N)C#N",
    "metricName": "activity coefficient",
    "observed": 0.498
  },
  {
    "molecule": "C#CCCCC [1-hexyne] + CCCCCCn1cc[n+](C)c1.N#C[B-](C#N)(C#N)C#N",
    "metricName": "activity coefficient",
    "observed": 2.19
  },
  {
    "molecule": "CC1CCCCC1 [methylcyclohexane] + CCCCCCn1cc[n+](C)c1.N#C[B-](C#N)(C#N)C#N",
    "metricName": "activity coefficient",
    "observed": 8.35
  },
  {
    "molecule": "C#CCCCCC [1-heptyne] + CCCCCCn1cc[n+](C)c1.N#C[B-](C#N)(C#N)C#N",
    "metricName": "activity coefficient",
    "observed": 2.93
  },
  {
    "molecule": "C=CCCCCCCCC [1-decene] + CCCCCCn1cc[n+](C)c1.N#C[B-](C#N)(C#N)C#N",
    "metricName": "activity coefficient",
    "observed": 20.5
  }
]

Lab note: each molecule below needs its activity coefficient filled in.
1. CC(C)=O [acetone] + CCCCCCn1cc[n+](C)c1.N#C[B-](C#N)(C#N)C#N
2. C1CCCCCC1 [cycloheptane] + CCCCCCn1cc[n+](C)c1.N#C[B-](C#N)(C#N)C#N
3. COC(C)(C)C [2-methoxy-2-methylpropane] + CCCCCCn1cc[n+](C)c1.N#C[B-](C#N)(C#N)C#N
4. CC#N [acetonitrile] + CCCCCCn1cc[n+](C)c1.N#C[B-](C#N)(C#N)C#N
5. CCC(C)(C)C [2,2-dimethylbutane] + CCCCCCn1cc[n+](C)c1.N#C[B-](C#N)(C#N)C#N
6. CCCCCC [hexane] + CCCCCCn1cc[n+](C)c1.N#C[B-](C#N)(C#N)C#N
7. CC(=O)O [acetic acid] + CCCCCCn1cc[n+](C)c1.N#C[B-](C#N)(C#N)C#N
8. C=Cc1ccccc1 [styrene] + CCCCCCn1cc[n+](C)c1.N#C[B-](C#N)(C#N)C#N

(A)
[0.344, 7.46, 1.66, 0.391, 9.96, 11.2, 0.285, 0.83]
